system-under-test: OXA-10 (class D β-lactamase) (Pseudomonas aeruginosa, UniProt P14489)
Sequence (P14489 20-266, species assumed): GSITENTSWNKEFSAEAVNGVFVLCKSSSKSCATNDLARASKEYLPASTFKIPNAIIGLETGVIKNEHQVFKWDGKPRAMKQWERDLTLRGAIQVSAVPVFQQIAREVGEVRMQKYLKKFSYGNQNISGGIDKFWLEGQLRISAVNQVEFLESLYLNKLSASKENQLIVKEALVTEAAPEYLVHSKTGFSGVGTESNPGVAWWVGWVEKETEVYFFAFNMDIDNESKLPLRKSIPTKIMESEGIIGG
protocol-details: β-Lactamase assay (nitrocefin colour change), OXA-10
recorded-conditions: nitrocefin 100 μM, 10 nM enzyme, 5 min pre-incubation; read-out: IC50s OXA-10
pIC50: −log10 of the molar value.
pIC50 vs 5: at or above is true (1), below is false (0).

# molecule, label-class
data = [
    ("CCCCCCCCCCCCCCCCOc1ccc(NC(=O)c2c(Br)c(Br)c(Br)c(Br)c2C(=O)O)cc1 [Compound 291]", "true (1)"),
    ("CCCCCCCCOc1ccc(NC(=O)c2c(F)c(F)c(F)c(F)c2C(=O)O)cc1Cl [Compound 301]", "false (0)"),
    ("CCCCCCCCCCCCCCCCOc1ccc(NC(=O)c2c(Cl)c(Cl)c(Cl)c(Cl)c2C(=O)O)cc1 [Compound 290]", "true (1)"),
    ("O=C(O)c1c(Cl)c(Cl)c(Cl)c(Cl)c1C(=O)Nc1ccc(OCc2ccccc2)c(Cl)c1 [Compound 253]", "false (0)"),
]

Reference source for all entries: patent US8859620B2
